Entry source: PubChem BioAssay (NCATS)

experiment: qHTS profiling of the MIPE4 collection as inhibitors of Plasmodium falciparum (HB3) proliferation (AID 743347);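 further: plate controls were DMSO vehicle wells for no effect and artemisinin wells for full effect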; settings: P. falciparum HB3 in erythrocytes, SYBR Green DNA, 72 h; at 28.5 µM (top of the series) unless noted
Listing of entries alongside the reported growth, % of control.
Parameter Measured: growth, % of control (%)

                                   compound    parameter_measured  readout_unit  reported_value
0    CC(S)C(=O)NCC(=O)O (centres undefined)  growth, % of control             %            95.5
1                     Oc1ccc(OCc2ccccc2)cc1  growth, % of control             %            89.5
2    CN(C)[C@@H](CCOc1cccc2ccccc12)c1ccccc1  growth, % of control             %            15.2
3  COc1cc2c(N3CCN(C(=O)Nc4ccc(OC(C)C)cc4)CC3)ncnc2cc1OCCCN1CCCCC1  growth, % of control             %            3.25

----------
assay: qHTS of pediatric cancer cell lines to identify multiple opportunities for drug repurposing: Primary screen for RD cells (AID 1347104); details: RD rhabdomyosarcoma viability, CellTiter-Glo luminescence, 48 h; series mostly up to 46 µM; further: nearly all actives have a fitted effect of over 55% in size
Results filed as inconclusive are left out. Activity calls are given as the source filed them. Calls follow the shape of the dose curve; as a rule, active = well fitted cell-killing curve with a large enough effect; inconclusive = small, poorly fitted or top-dose-only effect; inactive = flat fitted curve, though single readings scatter.
Outcomes: active, inactive

In [3]: df
Out[3]:
                                    compound     label
 0  COc1c(O)cc2c(c1O)[C@@H]1O[C@H](CO)[C@@H](O)[C@H](O)[C@H]1OC2=O  inactive
 1  C[Se]CCC(N)C(=O)O (configuration not stated)  inactive
 2  CC1(C)CCC(C)(C)c2cc(NC(=O)c3ccc(C(=O)O)cc3)ccc21  inactive
 3    Cc1cc(O)c2c(c1)C(=O)c1cc(O)cc(O)c1C2=O  inactive
 4  O=C(c1ccccc1)c1ccc2n1CCC2C(=O)O (configuration not stated)  inactive
 5            C=CCc1cc(OC)c(O)c(C(=O)NCCO)c1  inactive
 6  Cc1nccn1CC1CCc2c(c3ccccc3n2C)C1=O (configuration not stated)  inactive
 7  CC(C)C[C@H](NC(=O)[C@H](Cc1ccccc1)NC(=O)c1cnccn1)B(O)O    active
 8  O=C(NCC1CCCCN1)c1cc(OCC(F)(F)F)ccc1OCC(F)(F)F (configuration not stated)  inactive
 9  CC(C)[C@H](N)C(=O)OCCOCn1cnc2c(=O)[nH]c(N)nc21  inactive
10                     Oc1ccc(OCc2ccccc2)cc1  inactive
11  CCCCN(CCCC)CCC(O)c1cc2c(Cl)cc(Cl)cc2c2cc(C(F)(F)F)ccc12 (configuration not stated)  inactive
12  O=C(O)c1cc(=O)c2c(OCC(O)COc3cccc4oc(C(=O)O)cc(=O)c34)cccc2o1  inactive
13  Cc1c(C(=O)NN2CCCCC2)nn(-c2ccc(Cl)cc2Cl)c1-c1ccc(Cl)cc1    active
14                c1cnc2cc3c(cc2n1)C1CNCC3C1  inactive
15                          NNc1nncc2ccccc12  inactive
16  COCCCOc1ccnc(CS(=O)c2nc3ccccc3[nH]2)c1C (configuration not stated)  inactive
17    CN(C)[C@@H](CCOc1cccc2ccccc12)c1ccccc1    active
18                 COc1c2occc2cc2ccc(=O)oc12  inactive
19   Cc1nc(-c2ccc(OCC(C)C)c(C#N)c2)sc1C(=O)O  inactive
20     NC(=NCc1ccccc1)NC(=O)c1nc(Cl)c(N)nc1N    active
21  O=C(O)CCNC(=O)c1ccc(N=Nc2ccc(O)c(C(=O)O)c2)cc1  inactive
